B1: TRIM35 (parent)
chain: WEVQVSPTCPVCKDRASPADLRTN

# Variants of: B1
# METHOD_DESCRIPTION: protein stability index of a GFP-peptide fusion (GPS, HEK-293T) (PSI 1-6); higher = more stable;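 also: lentivirally expressed fusions sorted by FACS into six bins by GFP to DsRed ratio, PSI derived from sequencing read proportions per bin multiplied by bin number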
# ASSAY_CONDITIONS: c terminus: a fixed tail appended
Readings of protein stability index for the listed variants
API note: the answer field is a bare number with no unit suffix.

INSERT INTO results (record_sequence, obs_value) VALUES
  ('WEVQVSMTCPVCKDRASPADLRTN', 1.33);

stdin: Look up protein stability index: `WEVQVSPTCPVCKDRASPADLPTN`
stdout: 3.74
